# method.description: Binding affinity to Cy5-labeled SARS-CoV-2 Attenuator hairpin RNA incubated for 20 mins by microscale thermophoresis analysis
# Set-up: species or system Severe acute respiratory syndrome coronavirus 2
quantity.kind: Kd
Express your answer as a number followed by its unit.

**Q:** Kd for `CNc1nc(Nc2cccc(C(=O)O)c2)nc2ccccc12` ?
**A:** 11 nM
